assay: Pharmacokinetic data of compounds in male SD rats; format: in vivo; settings: rat, po, intragastric, 5 mg/kg, suspension MC 0.5%, plasma
Below, each entry is listed alongside its reported Tmax.

Field: example entries. Status: answers known.
Cn1cc(-c2cc(-c3ccc(N4CCN(Cc5cccc(S(C)(=O)=O)c5)CC4)nc3)c3c(C#N)cnn3c2)cn1 1.17 h
CS(=O)(=O)c1ccc(CN2C3CC2CN(c2ccc(-c4cc(-c5cnn(C(F)F)c5)cn5ncc(C#N)c45)cn2)C3)cc1 1.83 h

Can you share its Tmax? I mean this compound: "CS(=O)(=O)c1ccc(CN2C3CC2CN(c2ccc(-c4cc(-c5cnn(C(F)(F)F)c5)cn5ncc(C#N)c45)cn2)C3)cc1"
2 h

Can you share its Tmax? I mean this compound: "COc1ccc(CN2CCN(c3ccc(-c4cc(N5CC(F)(F)C5)cn5ncc(C#N)c45)cn3)CC2)cn1"
1.75 h

Can you share its Tmax? I mean this compound: "CSc1ccc(CN2CCN(c3ccc(-c4cc(-c5cnn(C)c5)cn5ncc(C#N)c45)cn3)CC2)cn1"
4 h
